# experiment: in vitro
# runConditions: human, plasma
# Description: Protein binding in human plasma
Answer false (0) if fraction unbound is under 0.1, and true (1) if it is 0.1 or more.

Answered examples (4):
Qu. In plain terms: is recorded fraction unbound at least 0.1 for CCOP(=O)(O)c1ccc(C(=O)Nc2ccc(C)c(Nc3nccc(-c4cccnc4)n3)c2)cc1 ?
Ans. false (0)

Qu. Test whether the molecule CCOP(=O)(OCC)c1ccc(C(=O)Nc2ccc(C)c(Nc3nccc(-c4cccnc4)n3)c2)cc1 records fraction unbound of 0.1 or higher.
Ans. false (0)

Qu. # bool: fraction unbound of Cc1ccc(NC(=O)c2ccc(P(C)(C)=O)cc2)cc1Nc1nccc(-c2cccnc2)n1 >= 0.1
Ans. true (1)

Qu. Answer whether fraction unbound of Cc1ccc(NC(=O)c2ccc(P(C)(=O)O)cc2)cc1Nc1nccc(-c2cccnc2)n1 is greater than or equal to 0.1.
Ans. true (1)

Consider the additional molecule presented here.
Qu. Reported fraction unbound at or above 0.1? Cc1ccc(NC(=O)c2ccc(P(=O)(O)O)cc2)cc1Nc1nccc(-c2cccnc2)n1
Ans. false (0)

###

# experiment: physchem
# runConditions: octanol/water, pH 2
# Description: Octanol/water partition coefficient, log D of the compound at pH 2
Provide the recorded logD for the entries that follow.
Answers are plain numbers.

Answered cases to consult:
Qu. Using the record for CCOP(=O)(OCC)c1ccc(C(=O)Nc2ccc(C)c(Nc3nccc(-c4cccnc4)n3)c2)cc1 , report its logD.
Ans. 1.5

Qu. So what does the record say about logD for CNS(=N)(=O)c1ccc(C(F)(F)F)cc1 (stereo not given) ?
Ans. 0.8

Qu. Quick one: logD of CCOC(=O)c1ccc(C(=O)Nc2ccc(C)c(Nc3nccc(-c4cccnc4)n3)c2)cc1 ?
Ans. 1.9

Qu. Record request: logD value, item CCOP(C)(=O)c1ccc(C(F)(F)F)cc1 (stereo not given)
Ans. 2.5

Qu. Param item = CN=S(=O)(NC)c1ccc(C(F)(F)F)cc1 (stereo not given) ; retrieve measured logD.
Ans. 0.7

Qu. What does the data say about its logD? Entry: CN=S(=O)(c1ccc(C(F)(F)F)cc1)N(C)C (stereo not given)
Ans. 2.2

Report logD for every entry below.
1. CCOP(=O)(O)c1ccc(C(F)(F)F)cc1
2. Cc1ccc(NC(=O)c2ccc(C(=O)N(C)C)cc2)cc1Nc1nccc(-c2cccnc2)n1
3. CN1CCCN(C)P1(=O)c1ccc(C(F)(F)F)cc1
4. O=S1(c2ccc(C(F)(F)F)cc2)=NCCCC1 (stereo not given)
5. CCP(=O)(CC)c1ccc(C(F)(F)F)cc1
6. CCOP(=O)(OCC)c1ccc(C(F)(F)F)cc1
7. O=P1(c2ccc(C(F)(F)F)cc2)OCCNCCO1
8. CCOP(C)(=O)c1ccncc1 (stereo not given)

Ans.
[1.9, 0.7, 3, 0.1, 2.3, 3.4, 0.5, -1.1]

List the reported logD of each molecule below.
1. CC(C)(C)NC(=O)c1ccc(C(F)(F)F)cc1
2. O=P1(c2ccc(C(F)(F)F)cc2)NCCCO1 (stereo not given)
3. CNC(=O)c1ccc(C(F)(F)F)cc1

Ans.
3.8
2
1.9

# map each molecule to its logD
1. O=P1(c2ccc(C(F)(F)F)cc2)CCCC1
2. CC1(C)COP(=O)(c2ccc(C(F)(F)F)cc2)OC1
3. CP(=O)(O)c1ccc(C(F)(F)F)cc1
4. CN(C)S(=O)(=O)c1ccc(C(F)(F)F)cc1
5. CN=S(C)(=O)c1ccc(C(F)(F)F)cc1 (stereo not given)
6. Cc1ccc(NC(=O)c2ccc(P(C)(=O)O)cc2)cc1Nc1nccc(-c2cccnc2)n1

Ans.
1. 2
2. 3.1
3. 1.3
4. 3.4
5. 0.7
6. 0.6

Batch request: logD per item, same order as input.
1. O=P1(c2ccc(C(F)(F)F)cc2)CCC1
2. Cc1ccc(NC(=O)c2ccc(P(C)(C)=O)cc2)cc1Nc1nccc(-c2cccnc2)n1

Ans.
1. 1.8
2. 0.4
